molecular target: human Factor XIa (Homo sapiens (Human))
Sequence (P03951 388-625): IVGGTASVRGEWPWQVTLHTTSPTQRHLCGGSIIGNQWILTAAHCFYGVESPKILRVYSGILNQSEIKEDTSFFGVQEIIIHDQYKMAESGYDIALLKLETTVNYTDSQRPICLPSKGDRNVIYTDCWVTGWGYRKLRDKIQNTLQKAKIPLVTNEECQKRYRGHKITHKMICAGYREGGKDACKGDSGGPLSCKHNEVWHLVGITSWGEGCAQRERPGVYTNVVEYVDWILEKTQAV
Sequence (P03951 19-387 partner): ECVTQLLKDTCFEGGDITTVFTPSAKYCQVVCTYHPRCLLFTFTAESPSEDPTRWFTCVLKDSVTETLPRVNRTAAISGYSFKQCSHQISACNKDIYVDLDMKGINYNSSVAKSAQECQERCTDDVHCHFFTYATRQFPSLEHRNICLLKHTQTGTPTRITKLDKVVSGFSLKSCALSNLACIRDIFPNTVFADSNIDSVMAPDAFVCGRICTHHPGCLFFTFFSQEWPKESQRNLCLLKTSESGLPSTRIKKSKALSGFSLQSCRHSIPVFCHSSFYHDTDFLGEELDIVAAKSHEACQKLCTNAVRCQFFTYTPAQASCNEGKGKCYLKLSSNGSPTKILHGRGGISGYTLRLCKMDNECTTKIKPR
pIC50: −log10 of the molar value.
Endpoint Label: pIC50

Worked examples follow.
Task: For the compound Cc1cc(NC(=O)C(CC2CC2)c2ccc(-c3c(C(F)F)ccc(Cl)c3F)c[n+]2[O-])ccc1C(=O)O (single isomer, unassigned) [Example 121] , what pIC50 is on record?
Output: 6.21

Task: Ok, now CCOc1ccc(Cl)c(F)c1-c1ccc(C(CC2CC2)C(=O)Nc2ccc(C(=O)O)cc2)[n+]([O-])c1 (single isomer, unassigned) [Example 8]
Output: 6.01

Task: Ok, now CCOc1ccc(Cl)c(F)c1-c1ccc(C(CC2CC2)C(=O)Nc2ccc(C(=O)O)cc2)[n+]([O-])c1 (single isomer, unassigned) [Example 9]
Output: 8.05

Task: Ok, now COC(=O)c1ccc(NC(=O)C(CC2CC2)c2ccc(-c3c(C(F)F)ccc(Cl)c3F)c[n+]2[O-])cc1 (single isomer, unassigned) [Example 113]
Output: 6.00

a: Cc1cc(C(CC2CC2)C(=O)Nc2ccc(C(=O)O)cc2)[n+]([O-])cc1-c1c(OC(F)F)ccc(Cl)c1F (stereo not drawn) [Example 67]
b: CC1CC1C[C@H](C(=O)Nc1ccc(C(=O)O)cc1)c1ccc(-c2c(OC(F)F)ccc(Cl)c2F)c[n+]1[O-] (single isomer, unassigned) [Example 54]
Task: Could you tell me which of these two has the smaller pIC50 figure? First: a Second: b # answer = label of selected item
Output: b
(b: 6.43, a: 7.96)

Origin of measurements: patent US10143681B2
